Source of measurements: the supplement of paper PMC10981050

system: K562; experiment: cell viability relative to vehicle control; higher = less cytotoxic; settings: 10 µM; SRSF2 genotype: SRSF2 wt/wt;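 note: after 48 h exposure read by CellTiter-Glo luminescence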
So basically: is cell viability under 90%? Then True. Not under? Then False.

compound	tested target	assigned category
CC(CN(C)C)Oc1nc(Nc2cc3cccc(Cl)c3cn2)cnc1C#N (stereo not drawn)	K562	True
OC[C@@H](O)CN1CCN(c2ccccc2)CC1 [Levodropropizine]	K562	True
C[C@]12C=CC(=O)C=C1CC[C@@H]1[C@@H]2[C@@H](O)C[C@@]2(C)[C@H]1CC[C@]2(O)C(=O)CO [Prednisolone]	K562	False
O.O.O.O.O.O.O.[Cl][La]([Cl])[Cl] [Lanthanum(III) chloride heptahydrate]	K562	False
C[C@]12CC[C@@H]3c4ccc(O)cc4CC[C@H]3[C@@H]1CCC2=O [Estrone]	K562	False
CS(=O)(=O)c1ccc(C2=C(c3ccccc3)C(=O)OC2)cc1 [Rofecoxib (Vioxx)]	K562	False
COc1cc(CO)cc(OC)c1O [4-Hydroxy-3,5-dimethoxybenzyl alcohol]	K562	False
C=CCc1cc(OC)c(O)c(C(=O)NCCO)c1 [Alibendol]	K562	False
Oc1cc(CNC(=S)/C=C/c2cc(O)c(O)c(Br)c2)cc(O)c1O	K562	True
C[C@@H](Nc1cc(F)cc(F)c1)c1cc(C(=O)N(C)C)cc2c(=O)cc(N3CCOCC3)oc12	K562	True
C[C@H]1CNCCCN1S(=O)(=O)c1cccc2cncc(F)c12 [Ripasudil (K-115)]	K562	False
Cc1cc(C2CCCCC2)n(O)c(=O)c1 [Ciclopirox ethanolamine]	K562	True
CCS(=O)(=O)Nc1ccc2[nH]c(O)c(C(=Nc3ccc(CN4CCCCC4)cc3)c3ccccc3)c2c1 [Hesperadin]	K562	True
Cc1ccc(S(=O)(=O)Nc2nc3ccccc3nc2Nc2ccc3nsnc3c2)cc1 [XL147 analogue]	K562	False
